Experiment: PK after subcutaneous administration of solutions in dogs
Type: in vivo, Beagle dog
Settings: male, beagle, dog, plasma, sc, 12 mg/kg, dog mean, n=3; 504 h; SC 12 mg/kg, 400 mg/mL in 15% water/85% PEG 300
assay-endpoint: concentration at 504 h

Which concentration at 504 h value is on record for CC(C)(C#Cc1ccc(-c2ccc(Cl)c3c(NS(C)(=O)=O)nn(CC(F)(F)F)c23)c([C@H](Cc2cc(F)cc(F)c2)NC(=O)Cn2nc(C(F)(F)F)c3c2C(F)(F)[C@@H]2C[C@H]32)n1)S(C)(=O)=O ?
123 nM

----------
System: NNRTI-resistant viruses
Experiment: Cytopathic antiviral assay in MT-2 cells, NNRTI-resistant viruses
Format: cell-based, HIV-1
Conditions: K103N, Mutant/WT (HXB2D) EC50 ratio, mean ± s.d. of three experiments
assay-endpoint: EC50 Fold-Change
// return a plain number; no unit text

Which EC50 Fold-Change value is on record for COC(=O)N[C@H](C(=O)N[C@@H](Cc1ccccc1)[C@@H](O)CN(Cc1ccc(-c2ccccn2)cc1)NC(=O)[C@@H](NC(=O)OC)C(C)(C)C)C(C)(C)C ?
0.6

----------
Experiment: PK after oral administration in liquid-filled capsules in dogs
Assay type: in vivo, beagle dogs
Conditions: male, beagle, dog, plasma, po, 7.5 mg, fasted, pentagastrin-pretreated male beagle dogs; oral LFC 7.5 mg fixed dose; 100% glycerol monocaprylocaprate; 50 mg/mL; mean ± SD, n=6
assay-endpoint: Cmax (nM)
Express your answer in nM, writing the number without its unit.

Which Cmax value is on record for CC(C)(C#Cc1ccc(-c2ccc(Cl)c3c(NS(C)(=O)=O)nn(CC(F)(F)F)c23)c([C@H](Cc2cc(F)cc(F)c2)NC(=O)Cn2nc(C(F)(F)F)c3c2C(F)(F)[C@@H]2C[C@H]32)n1)S(C)(=O)=O [Formula (Ia)] ?
82.7

----------
Assay: PK after subcutaneous administration of solutions in rats
Format: in vivo, Wistar Han rat
Conditions: male, Wistar Han, rat, plasma, sc, 50 mg/kg, rat mean, n=3; 1680 h; SC 50 mg/kg, 300 mg/mL in 15% water/85% PEG 300
Method: Formulations containing the compound of Formula (Ia) were prepared as aqueous solutions or oral formulations and administered subcutaneously to rats, dogs, cynomolgus monkey, and/or rhesus monkey. A solution of the compound of Formula (Ia) in 10% ethanol, 13% water, and 77% PEG 200 (400 mg/mL) was prepared. The solution was administered subcutaneously to dogs at a dose of 12 mg/kg and rats at a dose of 50 mg/kg and the pharmacokinetic (PK) profile was determined. […]
assay-endpoint: concentration at 1680 h (nM)
Express your answer in nM, writing the number without its unit.

Which concentration at 1680 h value is on record for CC(C)(C#Cc1ccc(-c2ccc(Cl)c3c(NS(C)(=O)=O)nn(CC(F)(F)F)c23)c([C@H](Cc2cc(F)cc(F)c2)NC(=O)Cn2nc(C(F)(F)F)c3c2C(F)(F)[C@@H]2C[C@H]32)n1)S(C)(=O)=O ?
189

----------
Test: PK after subcutaneous administration of solutions in rats
Assay type: in vivo, Wistar Han rat
Settings: male, Wistar Han, rat, plasma, sc, 50 mg/kg, rat #2; 672 h; SC 50 mg/kg, 300 mg/mL in 15% water/85% PEG 300
assay-endpoint: concentration at 672 h (µM)
Express your answer in µM, writing the number without its unit.

Which concentration at 672 h value is on record for CC(C)(C#Cc1ccc(-c2ccc(Cl)c3c(NS(C)(=O)=O)nn(CC(F)(F)F)c23)c([C@H](Cc2cc(F)cc(F)c2)NC(=O)Cn2nc(C(F)(F)F)c3c2C(F)(F)[C@@H]2C[C@H]32)n1)S(C)(=O)=O [Formula (Ia)] ?
0.299

Cited source: patent US12594267B2
